Origin of measurements: paper PMC8868346

Below: a set of entries, each annotated with reported pIC50.
Target: hrMAO-A (Homo sapiens)
Construct: purchased Sigma–Aldrich
Sequence (P21397 1-527): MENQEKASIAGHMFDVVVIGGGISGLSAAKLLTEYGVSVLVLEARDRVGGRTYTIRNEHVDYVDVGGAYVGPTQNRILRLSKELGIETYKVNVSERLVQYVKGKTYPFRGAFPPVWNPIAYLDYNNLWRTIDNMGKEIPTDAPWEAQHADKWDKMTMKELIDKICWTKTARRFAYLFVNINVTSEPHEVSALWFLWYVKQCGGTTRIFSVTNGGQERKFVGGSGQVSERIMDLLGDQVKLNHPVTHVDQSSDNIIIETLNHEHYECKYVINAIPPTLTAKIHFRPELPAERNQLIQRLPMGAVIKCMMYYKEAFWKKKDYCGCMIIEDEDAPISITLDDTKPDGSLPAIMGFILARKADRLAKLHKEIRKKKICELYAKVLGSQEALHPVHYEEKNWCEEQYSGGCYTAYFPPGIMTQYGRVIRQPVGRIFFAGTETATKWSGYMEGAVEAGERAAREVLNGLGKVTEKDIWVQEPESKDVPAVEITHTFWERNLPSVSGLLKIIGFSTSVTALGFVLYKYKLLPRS
Assay: Inhibition of monoamine oxidase A (Amplex UltraRed, tyramine)
Type: biochemical
Field pIC50 (float): negative decimal logarithm of the concentration in molar.

compound: C#CCNCCc1c[nH]c2ccc(OC(=O)C=Cc3ccccc3)cc12 [Compound 11]
numeric.value: 4.36

Would you mind telling me what pIC50 value was observed for C#CCNCCc1c[nH]c2ccc(OC)cc12 [Compound 10] ?
6.08
